experimental_protocol: Cytotoxicity by neutral red dye uptake in HCV replicon cells
Format: cell-based
test_context: human, HCV replicon cell line AVAS (sub-genomic CONI), HCV replicon cells genotype 1B
measured_parameter: CC50 at 3 days (µM)
Report only the number, with the unit µM understood.

[in] Fill blank: measured CC50 at 3 days of the compound CC(=O)Oc1ccccc1C(=O)Nc1ncc(C(F)(F)F)s1 is ____.
[out] 3.7

[in] Fill blank: measured CC50 at 3 days of the compound O=C(Nc1ncc(C(F)(F)F)s1)c1ccccc1O is ____.
[out] 0.46

[in] Fill blank: measured CC50 at 3 days of the compound O=C(Nc1ncc([N+](=O)[O-])s1)c1ccccc1O [Tizoxanide] is ____.
[out] 15

[in] Fill blank: measured CC50 at 3 days of the compound CC(=O)Oc1ccccc1C(=O)Nc1nnc(C(F)(F)F)s1 is ____.
[out] 15

[in] Fill blank: measured CC50 at 3 days of the compound CC(=O)Oc1ccccc1C(=O)Nc1ncc([N+](=O)[O-])s1 [Nitazoxanide, reference compound] is ____.
[out] 32

[in] Fill blank: measured CC50 at 3 days of the compound O=C(Nc1nnc(C(F)(F)F)s1)c1ccccc1O is ____.
[out] 5.3

* * *

experimental_protocol: Cytotoxicity by neutral red dye uptake in HBV assay cultures
Type: cell-based
test_context: human, confluent 2.2.15 cells (HBV-replicating), nine daily doses
Description: […] EC50, EC90 and CC50 values (±standard deviations [S.D.]) were calculated by linear regression analysis using data combined from all treated cultures (Korba and Gerin, 1992; Okuse et al., 2005). […] Selectivity index (S.I.) was calculated as CC50/EC90 for HBV assays and CC50/EC50 for HCV assays. […]
measured_parameter: CC50 at 9 days

[in] Fill blank: measured CC50 at 9 days of the molecule CC(=O)Oc1ccccc1C(=O)Nc1nnc(C(F)(F)F)s1 is ____.
[out] > 100 µM

[in] Fill blank: measured CC50 at 9 days of the molecule CC(=O)Oc1ccccc1C(=O)Nc1nc(C(F)(F)F)cs1 is ____.
[out] > 100 µM

[in] Fill blank: measured CC50 at 9 days of the molecule CC(=O)Oc1ccccc1C(=O)Nc1ncc([N+](=O)[O-])s1 [Nitazoxanide, reference compound] is ____.
[out] > 100 µM

* * *

What Toxicity LD50 (MTT) was measured for each of the following?
Tested on: Hep-2 cells
test_context: human

[in] Could you share what Toxicity LD50 (MTT) was measured for O=C(Nc1ncc([N+](=O)[O-])s1)c1ccccc1O [Tizoxanide] , tested on Hep-2 cells?
[out] 50 µg/mL

[in] Could you share what Toxicity LD50 (MTT) was measured for CC(=O)Oc1ccccc1C(=O)Nc1nc(C(F)(F)F)cs1 [Compound 3] , tested on Hep-2 cells?
[out] >50 µg/mL

[in] Could you share what Toxicity LD50 (MTT) was measured for O=C(Nc1nc(C(F)(F)F)cs1)c1ccccc1O [Compound 4] , tested on Hep-2 cells?
[out] >50 µg/mL

[in] Could you share what Toxicity LD50 (MTT) was measured for CC(=O)Oc1ccccc1C(=O)Nc1ncc(C(F)(F)F)s1 [Compound 1] , tested on Hep-2 cells?
[out] >50 µg/mL

[in] Could you share what Toxicity LD50 (MTT) was measured for CC(=O)Oc1ccccc1C(=O)Nc1ncc([N+](=O)[O-])s1 [Nitazoxanide, reference compound] , tested on Hep-2 cells?
[out] >50 µg/mL

[in] Could you share what Toxicity LD50 (MTT) was measured for O=C(Nc1nnc(C(F)(F)F)s1)c1ccccc1O [Compound 6] , tested on Hep-2 cells?
[out] >50 µg/mL
